target: UniProtKB P11387; assay: Topoisomerase I […] was evaluated by Fluorescence assay using Ethidium Bromide after heat denaturation of pBR322 DNA at concentration 100 uM; conditions: Escherichia coli
property: Change

### Prompt Name the recorded Change for CN(C)CCCNC(=O)c1cc(NC(=O)c2cc(NC(=O)Cn3cc(C4=C(c5c[nH]c6ccccc56)C(=O)NC4=O)c4ccccc43)cn2C)cn1C .
### Response 12%

### Prompt Name the recorded Change for CN(C)CCCNC(=O)c1cc(NC(=O)Cn2cc(C3=C(c4c[nH]c5ccccc45)C(=O)NC3=O)c3ccccc32)cn1C .
### Response 3%

### Prompt Name the recorded Change for CN(C)CCCNC(=O)c1cc(NC(=O)c2cc(NC(=O)c3cc(NC(=O)Cn4cc(C5=C(c6c[nH]c7ccccc67)C(=O)NC5=O)c5ccccc54)cn3C)cn2C)cn1C .
### Response 13%

###

Give Change for every item shown.
Target: DNA topoisomerase 1 (Homo sapiens)
Sequence (whole entry): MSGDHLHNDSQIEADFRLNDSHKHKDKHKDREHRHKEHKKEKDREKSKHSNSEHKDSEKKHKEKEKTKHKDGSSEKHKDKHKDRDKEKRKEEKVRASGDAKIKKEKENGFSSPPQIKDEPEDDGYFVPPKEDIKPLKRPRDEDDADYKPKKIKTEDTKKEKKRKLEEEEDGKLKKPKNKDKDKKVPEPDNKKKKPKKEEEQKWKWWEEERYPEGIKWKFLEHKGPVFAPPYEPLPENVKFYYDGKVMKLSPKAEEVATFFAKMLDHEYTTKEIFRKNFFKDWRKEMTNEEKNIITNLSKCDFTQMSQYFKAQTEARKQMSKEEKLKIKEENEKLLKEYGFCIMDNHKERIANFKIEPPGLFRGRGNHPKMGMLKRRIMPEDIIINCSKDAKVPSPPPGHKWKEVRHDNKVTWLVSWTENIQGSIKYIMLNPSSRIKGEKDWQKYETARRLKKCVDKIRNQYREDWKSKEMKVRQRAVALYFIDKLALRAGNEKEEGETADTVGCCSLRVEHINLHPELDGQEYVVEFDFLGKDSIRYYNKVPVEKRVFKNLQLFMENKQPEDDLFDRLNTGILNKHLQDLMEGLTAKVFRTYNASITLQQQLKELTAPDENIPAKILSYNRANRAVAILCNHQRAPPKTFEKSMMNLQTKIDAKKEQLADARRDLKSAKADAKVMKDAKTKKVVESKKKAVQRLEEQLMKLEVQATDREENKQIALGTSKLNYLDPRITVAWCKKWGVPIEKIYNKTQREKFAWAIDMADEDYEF
Assay: Topoisomerase I DNA relaxation activity was evaluated by Fluorescence assay using Ethidium Bromide after heat denaturation of pBR322 DNA at concentration 25 uM
Conditions: Escherichia coli; at 25 µM
Note: unit % is implicit; provide only the numeric part.

### Prompt Name the recorded Change for CN(C)CCCNC(=O)c1cc(NC(=O)c2cc(NC(=O)c3cc(NC(=O)Cn4cc(C5=C(c6c[nH]c7ccccc67)C(=O)NC5=O)c5ccccc54)cn3C)cn2C)cn1C .
### Response 3

### Prompt Name the recorded Change for COC(=O)c1cc(NC(=O)c2cc(NC(=O)c3cc(NC(=O)Cn4cc(C5=C(c6c[nH]c7ccccc67)C(=O)NC5=O)c5ccccc54)cn3C)cn2C)cn1C .
### Response 6

### Prompt Name the recorded Change for CN(C)CCCNC(=O)c1cc(NC(=O)c2cc(NC(=O)Cn3cc(C4=C(c5c[nH]c6ccccc56)C(=O)NC4=O)c4ccccc43)cn2C)cn1C .
### Response 3

### Prompt Name the recorded Change for COC(=O)c1cc(NC(=O)c2cc(NC(=O)Cn3cc(C4=C(c5c[nH]c6ccccc56)C(=O)NC4=O)c4ccccc43)cn2C)cn1C .
### Response 13
